method description: soluble on expression in E. coli; label from the status in PepcDB or PDB records

sequence string: GPGSMSFPKEWTDTWNLFDDRRSGSVTHSDVKHIIRSLGRRYTEAEFNELLHDIPDPIPYQSFVEIMQKPYNGPTEDDLRTALRAFDGNDSGQLKLSELITLLTSLGEKMPEAEVKQLLSEVHTNEDGRVNIDDLARFLCTPLPTTQPDIAELQKQLAGIS
soluble on expression in E. coli: soluble
--
sequence string: MKKYLILVGSPPACGKTYVSGELAKRLNNPVYLDKDTVIPLSKMVFKAANQPYNRDSDFFKEYVRDAEYIVTFDLAFESLNYNNCVIVNAPFSKEFRDKGYMNNLKNKLKKYNAELIPVWVSCDIDVCHKRMIKRNSDRDTWKLNNWDEYVKGQNYTTPDLEGLFVVDNSSNEDFEAGLKKLLEKVLLEHHHHHH
soluble on expression in E. coli: soluble
--
sequence string: MGSDKIHHHHHHMNILAPVSSVKEAEQLIAHGADELYCGIGLGALKNRPGNTDREIWINRRESGNANIPDLESLSLLVDHAHAQGKKVYLTLNQPGYAQDLYGEILAFVREVKKSCQVDAFIVADPGLIRMLIGKEPDMVIHVSSLAGVLNSSAVLFFKKLGVKRIVFPRYLEAETLKKIMDRAGEDLEYEVFILNDGCMFEESHCHVSHQFGGAFCHNPAWRYKLIPPEEGGILETWKLRNLKIAGETFEGNVEEWKRWQWLGIKNGGGYIGAKYPLGMCGLCTLPEYRDMGITSLKIVGREAPLSKKIKSVQLLKKVLDYQREEHLPDEVRDYARRTKGARLLCGSGYMCYER
soluble on expression in E. coli: not soluble
--
sequence string: MSLSASFTGAGFFKGGKTLDFSKLSYLSNSFMSLPSTVRNKQASQTAKNKSMIEFIEKIQSKNIVVRQEERGIVISLAADAFFDSASADVKLEENRDSIQKIASFIGFLSPRGYNFKIEGHTDNIDTDVNGPWKSNWELSAARSVNMLEHILNYLDQSDVKRIENNFEVSGFGGSRPIATDDTPEGRAYNRRIDILITTDASLSFPKEGHHHHHH
soluble on expression in E. coli: soluble
--
sequence string: SMLSRAKPAVGGESPHTDKRKKKGRKIPKLEDLLSQRDFTGAITLLEFKRHVGEQEDDTNLWIGYCAFHLGDYKRALEEYENATKEENCNPEVWVNLACTYFFLGMYKQAEAAGFKAPKSRLQNRLLFHLAHKFNDEKKLMNFHQNLQDIKEDQLSLASNSEIHLPLPPECWD
soluble on expression in E. coli: soluble
--
sequence string: MSDAATRRLMKELAQLKSEAPEGLLVDNTSTSNDLKQWKIGVVGAEGTLYAGEVFMLQFTFGPQYPFNSPEVMFVGETIPAHPHIYSNGHICLSILSDDWTPALSVQSVCLSILSMLSSSKEKKHPIDDAIYVRTCSKNPSKTRWWFHDDSV
soluble on expression in E. coli: not soluble
--
sequence string: MGSDKIHHHHHHCDETELDQTVTNQVNPQKEEDSRIVFNSAKEFYNTLDTLSYMTYEEQTEWIRASGIKYPLYKDLEFCEDEIMTEMPRAFQALFNHKMEMQINDTVIAFEKGNMYVKSIKEKILPVPVLYGQVGVNQEESEVTTRTVYETKYGKIGTSYQYEFKIPEGKSKYKYVHELKSVIIKENLPPYKSWSNLFLVLKLEWKGKKKWKVAEKEERNISIDLNVCKRNLAKVKYNQEIRIDVQNMDSKSHSINIEGYIIHEVVGIPSTKMFNGWSYPLVEWQPR
soluble on expression in E. coli: not soluble
